Can you tell me selectivity ratio for the items I'm about to list?
# test summary: Therapeutic ratio was determined for peroral administration
# condition set: po; read-out: TR
Just the number.

Q: Return reported selectivity ratio; argument: COc1ccc2c(c1)c(CC(=O)O)c(C)n2C(=O)c1ccc(Cl)cc1 [INDOMETHACIN]
Ans: 0.04

Q: Consider next the compound CC(C)Cc1ccc(C(C)C(=O)O)cc1 (stereo not given) [IBUPROFEN] in the same way.
Ans: 3.4

Q: Consider next the compound COc1cc2c(c(OC)c1OC)-c1ccc(OC)c(=O)cc1[C@@H](NC(C)=O)CC2 [COLCHICINE] in the same way.
Ans: 1
